All figures here come from patent US20140205597A1.

EXPERIMENTAL SYSTEM: analytical polyclonal antibody obtained in Example 2
METHOD: SPR Biacore T100, immobilized polyclonal, 500 nM ISV
MEASURED PROPERTY: Binding (RU)

>  <BINDER>
Nb3.1 (VHH) VHH: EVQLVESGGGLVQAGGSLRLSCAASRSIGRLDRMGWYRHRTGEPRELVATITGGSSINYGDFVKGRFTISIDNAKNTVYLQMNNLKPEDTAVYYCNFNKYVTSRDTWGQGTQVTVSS

>  <MEASURED PROPERTY>
Binding (RU)

>  <DATA VALUE>
2

$$$$
>  <BINDER>
Nb4.1 (VHH) VHH: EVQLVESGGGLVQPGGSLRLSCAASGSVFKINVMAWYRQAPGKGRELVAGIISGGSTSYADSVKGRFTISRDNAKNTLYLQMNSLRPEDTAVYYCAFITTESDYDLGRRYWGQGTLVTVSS

>  <MEASURED PROPERTY>
Binding (RU)

>  <DATA VALUE>
51

$$$$
>  <BINDER>
Nb6.5 (VHH) VHH: EVQLLESGGGLVQPGGSLRLSCAASGLPFSTKSMGWFRQAPGKGREFVSRISPGGTSRYYGDFVKGRFTISRDNSKNTLYLQMNSLRAEDTAVYYCASGERSTYIGSNYYRTNEYDYWGQGTLVTVSS

>  <MEASURED PROPERTY>
Binding (RU)

>  <DATA VALUE>
66

$$$$
>  <BINDER>
Nb3.13 (VHH) VHH: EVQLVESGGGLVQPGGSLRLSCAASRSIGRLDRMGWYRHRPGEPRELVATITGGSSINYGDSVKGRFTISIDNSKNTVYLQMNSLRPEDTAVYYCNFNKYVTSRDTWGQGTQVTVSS

>  <MEASURED PROPERTY>
Binding (RU)

>  <DATA VALUE>
90

$$$$
